TGI: recorded values
- Test system: MDA-MB-231 breast
- assay-info: NCI tumour cell line growth inhibition, 48 h

{"columns": ["molecule", "system-tested", "TGI"],
 "data": [
  ["COc1ccc(S(=O)(=O)Nc2cc(/C=C\\c3cc(OC)c(OC)c(OC)c3)ccc2OC)cc1", "MDA-MB-231 breast", "> 100 µM"],
  ["COC(=O)[C@@H](NC(=O)N(CCC#N)CCCN(C(=O)N[C@H](Cc1ccccc1)C(=O)OC)c1ccccc1)C(C)C", "MDA-MB-231 breast", "> 100 µM"],
  ["c1ccc2c(c1)cc1c3[nH]c4ccccc4c3ccn21", "MDA-MB-231 breast", "> 10 µM"],
  ["O=C1CCCC1C(O)(C(F)(F)F)C(F)(F)F (stereo not given)", "MDA-MB-231 breast", "> 100 µM"],
  ["COc1cccc(N2C(=O)/C(=C\\c3ccccc3)SC2c2cc(OC)c(OC)c(OC)c2)c1 (stereo not given)", "MDA-MB-231 breast", "> 100 µM"]
]}

====

- System: EKVX NSCLC
- assay-info: NCI tumour cell line growth inhibition, 48 h

{"columns": ["compound", "TGI"],
 "data": [
  ["O=C1C=CC[C@H](/C=C/c2ccccc2)O1", "> 50.1 µM"],
  ["Oc1cc(-c2ccc(Cl)cc2)cn2c1nc1ccccc12", "> 100 µM"],
  ["Cn1c(Cl)cn2c3nc4ccccc4nc3c(=O)c(C#N)c12", "> 100 µM"],
  ["O=c1[nH]c(=O)c2cc(C3CC(O)C(CO)O3)ccc2[nH]1 (stereo not given)", "> 100 µM"],
  ["COCn1cnc2c(=O)n(-c3ccc(OC)cc3)c(=S)n(-c3ccc(OC)cc3)c21", "> 100 µM"]
]}

====

- Test system: SR leukemia
- assay-info: NCI tumour cell line growth inhibition, 48 h
Readings of TGI for the listed compounds
measure: TGI

{"columns": ["compound", "endpoint-value"],
 "data": [
  ["O=C1C=CC2(O)OCCN(CCO)C2=C1 (stereo not given) (tested in a mixture with another compound)", "> 100 µM"],
  ["CC(C)(C)c1ccc(-n2c3nc(=O)n(-c4ccccc4CO)c(=O)c-3cc3ccccc32)cc1", "73 µM"],
  ["Cc1ccc(C2=C(C#N)C(=O)N3CCN=C3S2)cc1", "> 100 µM"],
  ["Cc1ccc(N2CCC3(CC2)OCCO3)cc1", "> 100 µM"],
  ["O=[N+]([O-])c1cc(C2SCc3nc4ccccc4n32)ccc1Cl (stereo not given)", "> 100 µM"],
  ["O=C(c1ccccc1)[C@@H]1C[C@H](Sc2ccccc2)c2cc(Cl)ccc2N1", "> 100 µM"],
  ["CCOC(=O)[C@@H]1CCN2CN(c3ccc(OC)cc3)N=C(c3ccccc3)[C@@]12c1ccccc1", "> 100 µM"],
  ["CCN(CC)CCn1c2ccccc2c(=O)c2c(O)ccc(O)c21", "26.2 µM"],
  ["O=c1oc2cc(N=Cc3ccc4c(c3)OCO4)ccc2c2ccccc12", "> 100 µM"],
  ["C=CCN1C(=O)/C(=C/c2ccc(C)cc2)NC1=S", "> 100 µM"],
  ["Cc1c(F)c(N)c2c(=O)cc(-c3ccc(N)c(F)c3)oc2c1F", "82.8 µM"],
  ["COc1ccccc1N1CCN(CCc2c[nH]c3cc4c(cc23)OCO4)CC1", "99 µM"],
  ["COc1cc(NC(=O)CSc2nc3ccc(C)cc3c(=O)n2Cc2ccccc2)cc(OC)c1OC", "> 100 µM"],
  ["CC(C)(C)NCC(O)c1ccc(O)c(CO)n1 (stereo not given)", "> 100 µM"],
  ["O=C(O)CCC(NC(=O)c1ccccc1)C(=O)O (stereo not given)", "> 100 µM"],
  ["O=c1n(-c2ccccc2)c(=O)n2n1C1Cc3ccccc3C12 (stereo not given)", "> 100 µM"],
  ["O=S(Nc1ccccc1)c1ccc(Cl)c(Cl)c1 (stereo not given)", "> 100 µM"],
  ["O=C(O)c1cc(-c2ccncc2)nc2ccccc12", "> 100 µM"],
  ["COc1ccc(NC(=O)COCCOCCNC[C@@H]2C(=O)O[C@H]3[C@H]2CC/C(COC(=O)OC/C2=C/CC[C@@]4(C)O[C@H]4[C@H]4OC(=O)[C@@H](CN(C)C)[C@@H]4CC2)=C\\CC[C@@]2(C)O[C@@H]32)c(O)c1C(N)=O", "9.28 µM"],
  ["C=C(C)[C@@H]1CC[C@]2(C)[C@H](CC=C3[C@@H]4[C@@H](C)[C@H](C)CC[C@]4(C(N)=O)CC[C@]32C)[C@@]1(C)CCC#N", "9.48 µM"]
]}
